In this section we review reported % Change Compared to pH 7.4 + Calcium values for a set of binders.
Target: T1, recombinant, soluble human ASGR-1 (human, UniProt P07306 62-291)
T1 construct: biotinylated in the binning assay; also called soluble huASGR-1; Soluble ASGR-1 (Amgen)
T1 sequence: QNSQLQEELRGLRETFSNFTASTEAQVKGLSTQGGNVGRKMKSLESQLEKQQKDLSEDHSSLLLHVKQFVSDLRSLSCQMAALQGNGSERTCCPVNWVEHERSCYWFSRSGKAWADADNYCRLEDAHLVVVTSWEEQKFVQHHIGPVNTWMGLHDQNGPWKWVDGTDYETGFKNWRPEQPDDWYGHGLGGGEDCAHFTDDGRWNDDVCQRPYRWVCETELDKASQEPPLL
Test: Octet BLI dissociation, pH 5.6 plus calcium
Write the number in % without appending the unit.

1. 198D2 (antibody, V domains shown, hybridoma mAb) VH: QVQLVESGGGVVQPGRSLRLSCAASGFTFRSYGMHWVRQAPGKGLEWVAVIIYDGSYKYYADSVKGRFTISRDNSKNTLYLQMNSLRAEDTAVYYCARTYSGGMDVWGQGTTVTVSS VL: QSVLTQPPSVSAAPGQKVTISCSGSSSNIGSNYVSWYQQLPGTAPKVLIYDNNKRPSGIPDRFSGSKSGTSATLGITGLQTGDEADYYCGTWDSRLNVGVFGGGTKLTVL ... -30

[in] Give the value of % Change Compared to pH 7.4 + Calcium reported for the following: 66H11 (antibody, V domains shown, hybridoma mAb) VH: QVQLVQSGAEVKKPGASVKVSCKASGYTFATYGISWVRQAPGQGLEWMGWISAYNGNTNYAQKLQGRVTMTTDTSTSTAYMELRSLRSDDTAVYYCARGEAVAVFDPWGQGTLVTVSS VL: DIQMTQFPSSLFAFVGDRVTITCPASQGISNYLAWFQQKPGKAPKSLIYGAFNLHSGVPSKFSGSGFGTDFTLTINSLQPEDFANYYCQQYSCYPFTFGHGTKVDIK
[out] 36
